melting point overview

For orientation, consider the following solved cases.
COCNC(=O)NC1CCC(=O)c2sccc21 (stereo unspecified) :: 155 to 158 °C
COC(=O)C1=CCC(NC(C)=O)C1 (stereo unspecified) :: 72 to 74 °C

Consider `O=C(c1ccc(F)cc1)c1ccc([N+](=O)[O-])cc1Cl` . Its measured melting point is 83 to 84 °C

Consider `COc1ccnc(CSc2nc3cc4c(cc3[nH]2)OCO4)c1C` . Its measured melting point is 215 to 220 °C

Consider `Clc1ncnc(Cl)c1Cl` . Its measured melting point is 50 to 52 °C

Consider `O=C(c1ccc(F)cc1)c1ccc(Br)cc1` . Its measured melting point is 106 to 107 °C

Consider `CCOC(=O)/C=C(/c1ccc(CC)cc1)c1cc(Cl)cc(Cl)c1` . Its measured melting point is 73 to 75 °C

Consider `COC(=O)c1cc(C)c(C(=O)OC)c(OC)c1` . Its measured melting point is 98 to 99 °C

Consider COC(=O)c1ccc(C(C)(O)c2cc3cc(C(F)(F)F)ccc3n2S(=O)(=O)c2cccc(C(C)(C)C)c2)cc1 (stereo unspecified) . Its measured melting point is 70 °C

Consider CCCCCC(C)C(C)c1cc(O)c2c(c1)OC(C)(C)C1=C2CN(C(C)C(=O)NC(N)=O)CC1 (stereo unspecified) . Its measured melting point is 95 to 100 °C

Consider `Cc1csc2[nH]c(=O)nc(-c3ccccc3F)c12` . Its measured melting point is 258 to 261 °C

---

observable: melting point

For orientation, consider the following solved cases.
CC(C)(C)OC(=O)Nc1ccc2ccc(C#N)cc2c1Br :: 139 to 141 °C
CCn1nc(-c2ccccc2)c(C(=O)O)c(Nc2cccnc2)c1=O :: 255 to 257 °C
CON(C)C(=O)c1ccc(-n2ccnc2)nc1 :: 69 to 70 °C

Consider CC1(C(=O)O)COC2(CC3CCC2(C)C3(C)C)OC1 (stereo unspecified) . Its measured melting point is 172 to 175 °C

Consider `N#CC(C#N)=C1N(CCN2CCCCC2)CCN1CCN1CCCCC1` . Its measured melting point is 104 to 106 °C

Consider c1ccc2c(c1)OCC(CN1CCC(CNc3nc4cc5c(cc4s3)OCO5)CC1)O2 (stereo unspecified) . Its measured melting point is 160 °C

Consider CC(C)(C)OC(=O)NC(CF)CC(=O)O (stereo unspecified) . Its measured melting point is 112 °C

Consider `C#Cc1ccc(CCNC(=O)c2cc(Cl)ccc2OC)cc1S(=O)(=O)NC(=S)NC` . Its measured melting point is 224 to 225 °C

---

melting point overview

COCc1nc2c(N)nc3cc(CCC(=O)N(C)C)ccc3c2n1CC(C)(C)O :: 142 to 145 °C
O=C1CCC(C(=O)OCc2ccccn2)N1 (stereo unspecified) :: 130 to 131 °C
CCOC(=O)c1csc(NC(=O)c2cccc(C#N)c2)n1 :: 203 to 204 °C
Cc1cccc2c1N=C(Cl)c1cscc1O2 :: 160 to 161 °C
O=C(CCl)NCC1OCCO1 :: 61 to 63 °C

Attention now turns to another entry.
Consider `CN(O)CCc1ccc2c(c1)C(=O)c1ccccc1CO2` . Its measured melting point is 101 to 102 °C

---

observable: melting point

For orientation, consider the following solved cases.
CN(N=Cc1ccc([N+](=O)[O-])cc1)C1=NOCc2ccc(Cl)cc21 :: 251 °C
CC(=O)Oc1ccc(C=C2CCCc3cc(C)cnc32)cc1OC(C)=O :: 100 to 101 °C
CNC(=O)c1cc(-c2ccc(S(C)=O)cc2)c(-c2ccc(F)cc2)s1 (stereo unspecified) :: 218 to 220 °C
C=CCN(C(=O)n1oc(C)c(Cl)c1=O)c1ccc(Cl)cc1Cl :: 90.5 to 92 °C
CC(C)(C)OC(=O)N1CCc2cc3ccccc3n2CC1 :: 129 to 132 °C

Consider `CC(=O)Nc1ncc(-c2ccncc2)cn1` . Its measured melting point is 261 to 264 °C

Consider `COc1c(SCc2ccco2)ccnc1CO` . Its measured melting point is 56 to 58 °C

Consider `CS(=O)(=O)Nc1cccc(CC2c3ccccc3CCc3ccccc32)c1` . Its measured melting point is 149 °C

Consider CCOC(=O)C1CCNC(=O)C1=O (stereo unspecified) . Its measured melting point is 148 to 151 °C

Consider `COc1ccc2c(c1)c(OC(C)C)c(C(N)=O)n2-c1ccccc1` . Its measured melting point is 152 to 154 °C

Consider `C(=C\c1nc2ccccc2n1-c1ccccn1)/c1ccco1` . Its measured melting point is 164 to 165 °C

---

melting point overview

For orientation, consider the following solved cases.
COc1cc2c(c([N+](=O)[O-])c1O)C(=O)c1ccccc1C2=O :: 296 to 297 °C
COC(=O)c1cc(-c2nnnn2C)c(C(=O)OC)s1 :: 149 to 151 °C
NC(C(=O)O)c1cc(O)cc(O)c1[N+](=O)[O-] (stereo not given) :: > 280 °C

Consider `N#Cc1c(-c2cccc(C(=O)N3CCOCC3)c2)cc(-c2ccccc2O)nc1NC(=O)c1cccs1` . Its measured melting point is 253 to 254 °C

Consider `O=C(Nc1cccnc1Cl)c1ccco1` . Its measured melting point is 102 °C

---

observable: melting point

For orientation, consider the following solved cases.
NC(=O)N(O)Cc1ccc(Oc2ccccc2)s1 :: 114 to 116 °C
CC1C(=O)Oc2cc(N3CCCCC3)c(Cl)cc21 (configuration not stated) :: 108 to 111 °C
CNCc1ccc2c(c1)C(Cc1ccnc(F)c1)(Cc1ccnc(F)c1)c1ccccc1-2 :: 130 to 134 °C
Cc1cc(-c2cc(CO)c(=O)n(CC(C)C)n2)ccc1F :: 107 to 110 °C
Cn1nc(-c2ncc(Cl)cc2F)c(I)c1OC(F)F :: 77 to 78 °C

Consider C#CCC(O)(c1cncnc1)C(C)(C)C (configuration not stated) . Its measured melting point is 174 to 176 °C

Consider Cc1cc(-c2cncc(OC3SCC(O)C(O)C3O)c2)ccc1C#N (configuration not stated) . Its measured melting point is 198 to 200 °C

Consider O=S(=O)(c1ccccc1)C1C2CCC(C2)C1Br (configuration not stated) . Its measured melting point is 108 to 110 °C

---

melting point overview

For orientation, consider the following solved cases.
Cc1ccccc1NC(=O)Nc1ccc(C(=O)N2Cc3cccn3Cc3ccccc32)cc1 :: 155 to 158 °C
Cc1c(C(=O)C=Cc2ccccc2F)c2ccccc2n1CCN1CCOCC1 :: 113 to 116 °C
N#Cc1cccn2cc(-c3ccc(C(=O)NCCC(=O)O)cc3)nc12 :: 212 to 215 °C

Consider `CCOC(=O)c1c(N(C)CCO)c2ccc(C)nc2n(CC)c1=O` . Its measured melting point is 111 to 113 °C

Consider `Cc1c(NC(=O)c2ccc(OC[C@@H]3CCCO3)cc2)ccc2cc(CNC3CCCC3)[nH]c12` . Its measured melting point is 159 to 163 °C

Consider `CCOC(=O)c1cc2cc(-c3ccccc3)ccc2[nH]1` . Its measured melting point is 173 to 174 °C

Consider `CCOC(=O)[C@@H]1O[C@@H]1c1ccc(C)cc1` . Its measured melting point is 66 °C

Consider O=C1Nc2c(C(F)(F)F)cccc2C12COc1cc3c(cc12)OCO3 (centres undefined) . Its measured melting point is 245 to 248 °C

Consider `Cc1cc(-n2ccnc2)c2cccc(OCc3c(Cl)ccc(S(=O)(=O)N4CCC[C@H]4C(=O)N(C)CCCN(C)C)c3Cl)c2n1` . Its measured melting point is 80 °C

---

observable: melting point

For orientation, consider the following solved cases.
Cc1nc(NC(=O)c2cccc(C(F)(F)F)c2)sc1C(=O)NCc1ccccc1 :: 195 to 196 °C
CCc1ccc(Nc2c(C(=O)NN)ccc(F)c2F)c(F)c1 :: 97.9 to 98.5 °C
CCCSc1ccc(N)c(C(=O)O)c1 :: 91 to 93 °C

Consider CC(=O)NC(Cl)C(Cl)(Cl)CCl (stereo not given) . Its measured melting point is 70 to 72 °C

Consider `Nc1ncnc2c1c(-c1ccc(Oc3ccccc3O)cc1)cn2C1CCCC1` . Its measured melting point is 107 to 109 °C

Consider `OCc1c[nH]c(=S)n1[C@H]1CCc2cc(Cl)c(Cl)cc2C1` . Its measured melting point is 247 to 248 °C

---

melting point overview

For orientation, consider the following solved cases.
Fc1ccc(CN2CCCC(Nc3nccc(-c4c(-c5ccc(F)cc5)nc5sccn45)n3)C2)cc1 (centres undefined) :: 131 to 133 °C
COc1ccc(-n2cnc(OC(C)C(=O)O)n2)cc1 (centres undefined) :: 155 to 157 °C
N#Cc1cc(Cn2cncn2)cc(-c2ccccc2)c1 :: 109 to 110 °C

Consider `Cc1ccc(NC(=O)c2ccc(CN3C[C@@H](C)N[C@@H](C)C3)c(Br)c2)cc1Nc1nccc(-c2cccnc2)n1` . Its measured melting point is 204 to 205 °C

Consider C1=C2NCCN2C(c2ccccc2)c2ccccc2C1 (centres undefined) . Its measured melting point is 200 to 201 °C

Consider `COc1cccc(CN(CCC(=O)O)c2nc(NC(=O)Nc3ccccc3OC)nc(Oc3ccc4ccccc4c3)n2)c1` . Its measured melting point is 189 to 194 °C

Consider `COc1cccc(-c2cnn(-c3ccccn3)c2)c1` . Its measured melting point is 89 to 90 °C

Consider `O=C(O)c1cn(C2COC2)c2c(F)c(N3CCCC3)c(F)cc2c1=O` . Its measured melting point is 261 to 262 °C

Consider `COc1nc(NS(=O)(=O)c2ccccc2Cl)nc(OC)n1` . Its measured melting point is 137 °C

Consider `Cc1ccc(-c2c(NS(=O)(=O)c3ccc(C(C)(C)C)cc3)ncnc2OCCOc2ncc(C#CC(C)(C)O)cn2)cc1` . Its measured melting point is 172 to 174 °C

Consider `O=C1CCC(n2cnc(-c3ccc(F)cc3)c2-c2ccnc(Nc3ccccc3)n2)CC1` . Its measured melting point is 205 to 207 °C

Consider `O=CNc1cc([N+](=O)[O-])cc([N+](=O)[O-])c1` . Its measured melting point is 121 to 123 °C
